This section presents variants with their documented self-cleavage values.
B1: LINE1-full (parent)
chain: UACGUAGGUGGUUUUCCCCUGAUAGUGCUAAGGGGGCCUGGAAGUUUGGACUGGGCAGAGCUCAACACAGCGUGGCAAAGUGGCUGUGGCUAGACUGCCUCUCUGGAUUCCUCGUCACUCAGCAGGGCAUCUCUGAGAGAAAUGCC

Variants of: B1
TEST_PROTOCOL: self-cleavage, relative activity (ratio to wild type); higher = more cleavage; in vitro, sequencing; the parent is a self-cleaving ribozyme

Recorded self-cleavage, per entry:
[[record]]
mutation_spec = "U1C U12G"
obs_value = 0.84

[[record]]
mutation_spec = "A59U A65G"
obs_value = 0.03

[[record]]
mutation_spec = "U26A C28U"
obs_value = 0.99

[[record]]
mutation_spec = "C17U A67G"
obs_value = 0.34

[[record]]
mutation_spec = "G35A A77U"
obs_value = 0.8

[[record]]
mutation_spec = "U12C U45G"
obs_value = 1.35

[[record]]
mutation_spec = "A43C U100C"
obs_value = 1.99

[[record]]
mutation_spec = "U91C C101U"
obs_value = 0.69


### Prompt Field request: self-cleavage | item: U20G A57U
### Response 0.21

### Prompt Now consider A50G A117U .
### Response 0.91

### Prompt Now consider A92U U132C .
### Response 0.83

### Prompt Now consider G11A A138G .
### Response 1.93

### Prompt Now consider U12C G83U .
### Response 1.07

### Prompt Now consider U13C U45C .
### Response 1.16

### Prompt Now consider `G86U` .
### Response 0.1

### Prompt Now consider U39C U132C .
### Response 1.32

### Prompt Now consider U100G U119C .
### Response 2.45

### Prompt Now consider U130C A140U .
### Response 0.32

From: the RNAGym collection of RNA variant scans (doi:10.7554/elife.90254)
